The following compounds are shown together with reported GI50 values.
- Experimental System: CDK2 (human) (UniProt P24941)
- Test Details: Cell-Based Assay
- Reported Conditions: snu638
Quantity Name: GI50 (µM)

Record Smiles: CC(C)n1ncc2c(Nc3cccc(Br)c3)nc(N(CCO)CCO)nc21
Uom: µM
Value Reported: 4.1
//
Record Smiles: CC(C)n1ncc2c(Nc3cccc(F)c3)nc(NCCO)nc21
Uom: µM
Value Reported: 7.57
//
Record Smiles: Cn1ncc2c(NCc3ccccc3)nc(NCCO)nc21
Uom: µM
Value Reported: 37.1
//
Record Smiles: OCCN(CCO)c1nc(NCc2ccccc2)c2cn[nH]c2n1
Uom: µM
Value Reported: 29

These entries and their values trace back to the Kinase Knowledgebase extract (Sharma et al. 2016).
